Tested on: 786-0 renal
Assay: NCI-60 one-dose screen, 48 h (100 = growth as untreated, 0 = no growth, -100 = all killed)
Conditions: 10 µM unless noted
About 83,000 compounds went through this panel and 20% of them were active in at least one assay; those are over-represented in the sample as a whole. Active and inactive are the calls of the source. Rule for the calls: active = growth percent below 10; inactive = the rest.
EXPERIMENTAL ENDPOINT: growth

Example cases with answers are listed next.
# MOLECULE, growth
rows = [
    ("Nc1ccc2c(c1)oc1ccccc12", "95.7% (inactive)"),
    ("CC(C)(C)C(=O)OCOP(=O)(NCc1ccccc1)C1CCCN(O)C1=O (centres undefined)", "23.9% (inactive)"),
    ("C[C@@H]1C[C@@]2(C)[C@@H](CC[C@@H]3[C@@H]2CC[C@]2(C)C(=O)CC[C@@H]32)CC1=O", "93.2% (inactive)"),
    ("CN(C)C(=O)Oc1ccccc1", "107% (inactive)"),
    ("COC(=O)[C@@H](C)C[C@H](Cc1cn(C)c2ccccc12)NC(=O)c1csc([C@@H](C[C@H](C(C)C)N(C)C(=O)[C@@H](NC(=O)[C@H]2CCCCN2C)C(C)C)OC(C)=O)n1", "6.49% (active)"),
    ("CCCCCCCC(=O)OCC(=O)[C@]1(O)Cc2c(O)c3c(c(O)c2[C@@H](OC2CC(N)C(O)C(C)O2)C1)C(=O)c1c(OC)cccc1C3=O (some centres undefined)", "-82.9% (active)"),
    ("COc1ccc(C(=O)c2cc(OC)c(OC)c(OC)c2)cc1OC(C)=O", "26.5% (inactive)"),
    ("O=C(N/N=C\\c1ccc(N(CCCl)CCCl)cc1)c1cccc([N+](=O)[O-])c1", "96.7% (inactive)"),
]

Now take the following molecule into account.
// fetch 786-0 renal growth for CC1=C2[C@@H](CC1)[C@]1(C)O[C@@](C(C)C)(C[C@H]1O)[C@H]2OC(=O)C1CC1c1ccccc1 (some centres undefined) 97.9% (inactive)

Data provenance: PubChem BioAssay (NCI)
